All values here come from patent US20120129766A1.

- tested_on: T1, human β-klotho (human, UniProt Q86Z14 1-1044)
- T1 sequence (looked up): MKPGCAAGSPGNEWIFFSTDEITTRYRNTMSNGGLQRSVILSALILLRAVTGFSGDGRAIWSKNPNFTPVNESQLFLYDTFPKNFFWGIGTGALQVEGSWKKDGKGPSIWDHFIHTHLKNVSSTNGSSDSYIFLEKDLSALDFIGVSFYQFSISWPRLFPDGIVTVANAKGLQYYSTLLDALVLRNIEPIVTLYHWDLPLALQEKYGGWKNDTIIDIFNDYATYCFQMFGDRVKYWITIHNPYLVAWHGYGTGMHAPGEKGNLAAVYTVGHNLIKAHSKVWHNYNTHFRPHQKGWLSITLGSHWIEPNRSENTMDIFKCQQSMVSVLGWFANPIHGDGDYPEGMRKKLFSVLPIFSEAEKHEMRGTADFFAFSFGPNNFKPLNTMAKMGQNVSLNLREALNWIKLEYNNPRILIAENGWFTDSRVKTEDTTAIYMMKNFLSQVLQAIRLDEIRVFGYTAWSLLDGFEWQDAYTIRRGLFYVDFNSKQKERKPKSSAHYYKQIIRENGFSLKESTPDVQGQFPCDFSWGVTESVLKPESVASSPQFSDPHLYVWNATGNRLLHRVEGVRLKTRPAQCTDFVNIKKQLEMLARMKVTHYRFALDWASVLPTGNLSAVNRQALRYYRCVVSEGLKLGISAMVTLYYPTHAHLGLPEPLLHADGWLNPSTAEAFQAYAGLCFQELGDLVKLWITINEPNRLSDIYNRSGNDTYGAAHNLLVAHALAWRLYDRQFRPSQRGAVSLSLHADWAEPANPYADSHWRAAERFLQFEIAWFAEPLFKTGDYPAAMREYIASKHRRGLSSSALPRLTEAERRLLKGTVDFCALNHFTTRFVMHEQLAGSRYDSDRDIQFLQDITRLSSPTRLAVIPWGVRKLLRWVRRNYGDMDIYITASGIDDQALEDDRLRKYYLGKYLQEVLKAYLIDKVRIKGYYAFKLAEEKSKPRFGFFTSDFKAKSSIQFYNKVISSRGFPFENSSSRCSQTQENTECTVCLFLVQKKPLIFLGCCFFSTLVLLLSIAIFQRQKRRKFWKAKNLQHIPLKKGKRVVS
- experiment_description: cell-based or functional assay
Answer each item with its documented Fold-WT (EC50 of variant / EC50 of FGF21-WT).
Write the value in fold as a bare number.

Prompt line: Annotate the binder hFGF21(33-209)-WT-AM (ligand) DSSPLLQFGGQVRQRYLYTDDAQQTEAHLEIREDGTVGGAADQSPESLLQLKALKPGVIQILGVKTSRFLCQRPDGALYGSLHFDPEACSFRELLLEDGYNVYQSEAHGLPLHLPGNKSPHRDPAPRGPARFLPLPGLPPAPPEPPGILAPQPPDVGSSDPLSMVGPSQGRSPSYAS with its measured Fold-WT (EC50 of variant / EC50 of FGF21-WT).
Response line: 1.5

Prompt line: Annotate the binder hFGF21(33-209)-V55 (ligand) DSSPLLQFGGQVRQRYLYTDDAQQTEAHLEIREDGTAGGAAHQSPESLLELKALKPGVIQILGVKTSRFLCQKPDGALYGSLHFDPEACSFRELLLENGYNVYQSEAHGLPLHLPGNRSPHRDPASQGPARFLPLPGLPPAPPEPPGILAPQPPDVGSSDPLAMVGPSQGRSPSYAS with its measured Fold-WT (EC50 of variant / EC50 of FGF21-WT).
Response line: 13

Prompt line: Annotate the binder hFGF21(33-209)-V56 (ligand) DSSPLLQFGGQVRQRYLYTDDAQQTEAHLEIREDGTVGGAAHQSPESLLQLKALKPGVIQILGVKASRFLCQKPDGALYGSLHFDPEACSFRELLLENGYNVYQSETHGLPLHLPGNKSPHRDPASQGPARFLPLPGLPPAPPEPPGILAPQPPDVGSSDPLAMVGPSQARSPSYAS with its measured Fold-WT (EC50 of variant / EC50 of FGF21-WT).
Response line: 14
